molecular target: Transcription factor Sp1 (Homo sapiens) (UniProt P08047); assay: ATG_Sp1_CIS: Attagene CIS-FACTORIAL HepG2 Assay for human Specificity Protein 1 (Sp1) (AID 2282961); settings: HepG2 Sp1 cis-reporter transcription, actives raise or lower the signal
Sequence (P08047 whole entry, looked up): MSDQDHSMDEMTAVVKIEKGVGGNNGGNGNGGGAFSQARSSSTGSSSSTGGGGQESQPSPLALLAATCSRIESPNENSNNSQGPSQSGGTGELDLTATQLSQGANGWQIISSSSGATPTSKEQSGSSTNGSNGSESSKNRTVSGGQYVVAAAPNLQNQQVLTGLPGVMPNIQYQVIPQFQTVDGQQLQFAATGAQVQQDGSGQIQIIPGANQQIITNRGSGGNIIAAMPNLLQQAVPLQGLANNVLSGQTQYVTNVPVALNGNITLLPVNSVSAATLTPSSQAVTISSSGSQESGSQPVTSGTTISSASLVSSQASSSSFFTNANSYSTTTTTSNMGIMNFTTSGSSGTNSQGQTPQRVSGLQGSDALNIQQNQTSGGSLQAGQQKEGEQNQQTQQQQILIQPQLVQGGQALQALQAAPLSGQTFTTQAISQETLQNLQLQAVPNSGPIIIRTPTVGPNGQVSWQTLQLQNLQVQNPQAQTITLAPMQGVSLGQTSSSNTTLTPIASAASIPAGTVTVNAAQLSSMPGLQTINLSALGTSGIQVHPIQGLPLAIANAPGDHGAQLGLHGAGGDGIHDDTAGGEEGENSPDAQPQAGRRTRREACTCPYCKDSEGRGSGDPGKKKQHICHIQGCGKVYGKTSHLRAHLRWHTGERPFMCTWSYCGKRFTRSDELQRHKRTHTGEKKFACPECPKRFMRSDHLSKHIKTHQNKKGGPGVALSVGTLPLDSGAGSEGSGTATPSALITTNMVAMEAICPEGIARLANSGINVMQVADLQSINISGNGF
Active and inactive are the calls of the source. Rule for the calls: active = hit-call score of the fitted dose curve at least 0.9, where 1 is the maximum; inactive = score below 0.9.
// one of active, inactive, no free text

O=C(CC(=O)c1ccccc1)c1ccccc1 : active

Q) Could you check what this test reported for CCCCSCCCC ?
A) inactive

Q) # lookup: test call for COc1ccc(CCC(C)=O)cc1
A) inactive

----------
read-out: Interleukin-8 (IL8), CXCL8 (gene 3576); assay: BSK_SAg_IL8: BioMAP Diversity Plus: SAg Assay for Interleukin-8 (IL8) Biomarker Activity (AID 2283094); conditions: primary human HUVEC with PBMC; actives raise or lower the signal
Calls of active or inactive are those of the source. Rule for the calls: active = hit-call score of the fitted dose curve at least 0.9, where 1 is the maximum; inactive = score below 0.9.
The reply should name one outcome from active, inactive

# count of solved cases: 5
CC(C)(C)CC(C)(C)c1ccc(OCCOCC[N+](C)(C)Cc2ccccc2)cc1 : active
c1ccc(Oc2ccccc2)cc1 : inactive
O=C1OC[C@H](Cc2cccc(O)c2)[C@H]1Cc1cccc(O)c1 : inactive
IC(I)I : inactive
CC(C)(N=C=O)c1cccc(C(C)(C)N=C=O)c1 : inactive

Q) Just curious, what result did C=C(C)C(=O)OCC(CC)(COC(=O)C(=C)C)COC(=O)C(=C)C get here?
A) inactive

Q) Could you please tell me the result logged for CN(c1nccc(=O)[nH]1)C1CCN(c2nc3ccccc3n2Cc2ccc(F)cc2)CC1 in this assay?
A) inactive

Q) Tell me the recorded outcome of this test for CC=Cc1ccc(OCC)c(O)c1 .
A) inactive

Q) I would be grateful if you could indicate the recorded call for O=C1OC2(c3ccccc31)c1ccc(O)c(Br)c1Oc1c2ccc(O)c1Br .
A) inactive

----------
read-out: Interferon-gamma inducible Protein 10 (IP10), CXCL10 (gene 3627); test: BSK_hDFCGF_IP10: BioMAP Diversity Plus: hDFCGF Assay for Interferon-gamma inducible Protein 10 (IP10) Biomarker Activity (AID 2283053); conditions: primary human foreskin fibroblasts; actives raise or lower the signal
Calls of active or inactive are those of the source. Rule for the calls: active = hit-call score of the fitted dose curve at least 0.9, where 1 is the maximum; inactive = score below 0.9.
QUANTITY_MEASURED: AC50

C=C(C)C(=O)OCCOCCOCCOCCOC(=O)C(=C)C : inactive
Clc1cc(Cl)c(-c2c(Cl)c(Cl)cc(Cl)c2Cl)cc1Cl : 16 µM (active)
C1=CC2C3C=CC(C3)C2C1 (stereo not given) : inactive
CN(C)C(=O)Nc1ccc(Oc2ccc(Cl)cc2)cc1 : inactive
c1ccc(CCc2ccccc2)cc1 : 34.1 µM (active)
CCCCCC(C=O)=Cc1ccccc1 : inactive
CCCCN(CCCC)C(=O)N(CCCC)CCCC : 11.1 µM (active)
C[C@@H]1CCN(C(=O)[C@H](CCCN=C(N)N)NS(=O)(=O)c2cccc3c2NC[C@H](C)C3)[C@@H](C(=O)O)C1 : inactive
CC(=O)Nc1ccc(C(=O)CCl)cc1 : 9.56 µM (active)
COc1ccc(OC)c(N=Nc2c(O)ccc3ccccc23)c1 : 3.71 µM (active)

Q) Which AC50 value belongs to c1ccc2cc(Nc3ccc(Nc4ccc5ccccc5c4)cc3)ccc2c1 ?
A) inactive

Q) Look at this molecule and give its reported AC50. COc1cc(Cl)c(OC)cc1N
A) inactive

Q) What value of AC50 has been recorded for this entry: Oc1c(Cl)cc(Cl)c(Cl)c1Cc1c(O)c(Cl)cc(Cl)c1Cl
A) 2.82 µM (active)

Q) Please give the measured AC50 for this molecule: CN(C)C(=S)SC(=S)N(C)C
A) 35.1 µM (active)

Q) Could you share which AC50 value was measured for CC(=O)c1c(C)c([N+](=O)[O-])c(C(C)(C)C)c([N+](=O)[O-])c1C ?
A) inactive

Q) I have this molecule here, CC(CN=Cc1ccccc1O)N=Cc1ccccc1O (stereo not given) , and I need its recorded AC50.
A) inactive

Q) Fill in: AC50 of c1ccc(Oc2ccccc2)cc1 is ___
A) inactive

Q) // query AC50 value for entry C=CC(C)(O)CCC=C(C)C (stereo not given)
A) inactive

Q) Give its AC50 value. Item: O=CN1CCOCC1
A) inactive

Q) Which AC50 is reported for this molecule? CC(C)(C)CC(C)(C)c1ccc(OCCOCC[N+](C)(C)Cc2ccccc2)cc1
A) 8.05 µM (active)

----------
Test: ATG_DR4_LXR_CIS: Attagene CIS-FACTORIAL HepG2 Assay for human Liver X Receptor (LXR), DR4 submotif (AID 2282929)
Details: HepG2 Attagene DR4 cis-reporter, mRNA transcription; actives raise or lower the signal
Procedure: ATG_CIS is a cell-based, multiplexed-readout assay that uses HepG2, a human liver cell line, with measurements taken at 24 hours after chemical dosing in a 24-well plate.ATG_DR4_LXR_CIS is one of 52 assay component(s) measured or calculated from the ATG_CIS assay. […] This assay endpoint, ATG_DR4_LXR_CIS, was analyzed with bidirectional fitting relative to DMSO as the negative control and baseline of activity. […]
Calls of active or inactive are those of the source. The calls were made as follows: active = hit-call score of the fitted dose curve at least 0.9, where 1 is the maximum; inactive = score below 0.9.
Pick one: active, inactive

Examples with answers:
CC1(C)O[C@@H]2[C@@H](CO[C@@]3(COS(N)(=O)=O)OC(C)(C)O[C@@H]23)O1 : inactive
CCCC(C)=O : inactive
O=C(Nc1ccc2c(O)c(N=Nc3ccc(N=Nc4ccc(S(=O)(=O)O)cc4)cc3)c(S(=O)(=O)O)cc2c1)c1ccccc1 : inactive

Q) GET /call?item= Oc1ccc2cc(SSc3ccc4cc(O)ccc4c3)ccc2c1 returns the recorded outcome of this test.
A) inactive

Q) In this assay, the call recorded for CCCSc1ccc2nc(NC(=O)OC)[nH]c2c1 was what?
A) inactive

Q) Outcome logged for C=CCN(CC=C)CC=C in this assay:
A) inactive

Q) Each compound tested received a call. Report the one for O=C1OC2(c3ccccc31)c1ccc(O)c(Br)c1Oc1c2ccc(O)c1Br .
A) inactive

Q) Can you look up the reported call for Cc1c(OCC(F)(F)F)ccnc1CS(=O)c1nc2ccccc2[nH]1 (centres undefined) for me?
A) active

Q) How was CC(=O)O[C@@H]1C[C@@H]2CC[C@@]1(C)C2(C)C classified in this test?
A) inactive

Q) Outcome logged for OCC#CCO in this assay:
A) inactive

Q) Fill in: this test's call for C=C1CC[C@H](O)C/C1=C/C=C1\CCC[C@]2(C)[C@@H]([C@H](C)/C=C/[C@H](C)C(C)C)CC[C@@H]12 is ___
A) inactive

Q) Entry CC1CC(O)CC(C)(C)C1 (centres undefined) : call = ?
A) inactive

Q) Recorded test outcome, item COC(=O)C=C(C)CCC=C(C)C
A) inactive

Q) GET /call?item= CCN(CCC#N)c1ccc(N=Nc2ccc([N+](=O)[O-])cc2)cc1 returns the recorded outcome of this test.
A) inactive

Q) What call does the record list for CSc1c(Cl)c(Cl)c(Cl)c(Cl)c1Cl ?
A) active

Q) How was CC1(C)CCC[C@]2(C)[C@H]3CCO[C@]3(C)CC[C@@H]12 classified in this test?
A) inactive

Q) Each compound tested received a call. Report the one for CCOC(=O)CCc1ccccc1 .
A) inactive

Q) Test call for this compound, please: C=C(C)C(=O)OCCOC1CC2CC1C1C=CCC21 (centres undefined)
A) inactive

Q) # lookup: test call for CC(C)CCCCCCCCCCCCCCC(=O)O
A) inactive

Q) How did this test come out for CCCN(CCC)S(=O)(=O)c1ccc(C(=O)O)cc1 ?
A) inactive

----------
read-out: urokinase plasminogen activator (uPA), PLAU (gene 5328); assay: BSK_KF3CT_uPA: BioMAP Diversity Plus: KF3CT Assay for urokinase plasminogen activator (uPA) Biomarker Activity (AID 2283075); settings: primary human keratinocytes with fibroblasts; actives raise or lower the signal
The source made the active and inactive calls. How the source made its calls: active means hit-call score of the fitted dose curve at least 0.9, where 1 is the maximum; inactive means score below 0.9.
Please reply with one of these outcomes: active, inactive

For orientation, consider the following solved cases.
C=C(C)C(=O)OCCOCCOCCOCCOC(=O)C(=C)C : inactive
C=C(C)[C@H]1CC=C(C)C(=O)C1 : inactive

Q) Returns: the outcome recorded for CC=Cc1ccc(OCC)c(O)c1 in this assay.
A) inactive

Q) Could you check what this test reported for CCCCCCCCCCCCCCCC(=O)OC/C=C(C)/C=C/C=C(C)/C=C/C1=C(C)CCCC1(C)C ?
A) inactive

----------
biological target: human Retinoid X Receptor beta (RXRb), RXRB (gene 6257) (UniProt P28702); experiment: ATG_RXRb_TRANS: Attagene TRANS-FACTORIAL HepG2 Assay for human Retinoid X Receptor beta (RXRb) (AID 2283013)
Sequence (P28702 whole entry, looked up): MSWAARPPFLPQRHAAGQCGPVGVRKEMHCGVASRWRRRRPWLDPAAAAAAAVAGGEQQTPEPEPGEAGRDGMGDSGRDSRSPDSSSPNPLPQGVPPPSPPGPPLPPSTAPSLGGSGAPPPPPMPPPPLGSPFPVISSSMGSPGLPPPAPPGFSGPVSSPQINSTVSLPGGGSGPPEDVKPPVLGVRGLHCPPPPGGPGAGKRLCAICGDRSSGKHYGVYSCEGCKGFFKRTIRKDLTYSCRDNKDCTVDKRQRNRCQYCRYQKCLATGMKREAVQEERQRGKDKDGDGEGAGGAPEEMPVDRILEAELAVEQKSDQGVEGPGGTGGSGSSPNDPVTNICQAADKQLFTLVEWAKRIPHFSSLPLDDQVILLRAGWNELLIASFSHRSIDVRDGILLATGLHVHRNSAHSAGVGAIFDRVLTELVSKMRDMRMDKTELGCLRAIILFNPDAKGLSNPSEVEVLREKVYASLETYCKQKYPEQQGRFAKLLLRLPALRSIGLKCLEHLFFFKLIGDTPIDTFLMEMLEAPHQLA
Inconclusive results are not listed. Activity calls are given as the source filed them. The calls were made as follows: active = hit-call score of the fitted dose curve at least 0.9, where 1 is the maximum; inconclusive = response in the unintended direction; inactive = score below 0.9.
In this exercise, the only acceptable responses are active, inactive

C=CC(=O)OCCCC : inactive
Cc1ccc2c(c1)C(=O)OC2=O : inactive
c1ccc(Oc2ccccc2)cc1 : active
C=C(C)C1CC=C(C)C(=O)C1 (stereo not given) : inactive
CC(=O)O[C@H]1C[C@@H]2CC[C@@]1(C)C2(C)C : inactive
CC(C)C[C@H](NC(=O)OCC1c2ccccc2-c2ccccc21)C(=O)O : inactive
O=C1OC[C@H](Cc2cccc(O)c2)[C@H]1Cc1cccc(O)c1 : inactive
N[C@@H](Cc1cc(I)c(Oc2cc(I)c(O)c(I)c2)c(I)c1)C(=O)O : active

Q) Recorded call for CCCCCCCC(=O)OCCCCCC ?
A) inactive

Q) # lookup: test call for Nc1ccc2cc(S(=O)(=O)O)cc(O)c2c1N=Nc1ccccc1C(F)(F)F
A) active

Q) Assay outcome for CS(=O)(=O)c1ccc(C2=C(c3ccccc3)C(=O)OC2)cc1 : what was it?
A) inactive

Q) Check the results log: what was the call for COc1ccccc1N=Nc1c(S(=O)(=O)O)cc2cc(S(=O)(=O)O)cc(NC(C)=O)c2c1O ?
A) inactive

Q) Assay outcome for CCO/C=C1\N=C(c2ccccc2)OC1=O : what was it?
A) inactive

Just for reference, PubChem BioAssay (EPA / NIEHS) is where these values come from.
